Target: Cytochrome P450 2C9 (Homo sapiens)
Sequence (P11712 whole entry): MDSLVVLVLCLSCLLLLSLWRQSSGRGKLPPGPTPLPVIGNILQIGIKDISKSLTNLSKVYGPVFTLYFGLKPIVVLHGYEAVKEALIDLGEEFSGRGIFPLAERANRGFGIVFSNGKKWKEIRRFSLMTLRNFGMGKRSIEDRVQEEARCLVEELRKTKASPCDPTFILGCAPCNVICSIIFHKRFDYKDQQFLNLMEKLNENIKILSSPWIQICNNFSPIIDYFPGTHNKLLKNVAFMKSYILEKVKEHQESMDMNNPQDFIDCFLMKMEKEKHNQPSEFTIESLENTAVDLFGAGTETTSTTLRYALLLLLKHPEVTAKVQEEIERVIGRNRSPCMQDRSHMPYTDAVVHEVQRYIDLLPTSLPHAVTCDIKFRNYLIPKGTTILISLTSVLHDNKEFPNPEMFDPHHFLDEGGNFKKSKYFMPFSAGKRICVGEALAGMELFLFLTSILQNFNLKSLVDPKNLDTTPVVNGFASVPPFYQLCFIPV
Experiment: Inhibition of CYP2C9
Type: ADME
Quantity name: pIC50
In plain terms, pIC50 is the concentration in mol/L turned into minus its base-10 logarithm.

*Q* Could you tell me which pIC50 is on file for CC(=O)Nc1cccc(-c2ccc(Cc3ocnc3C(=O)N[C@@H](Cc3ccccc3)C(=O)O)cc2)c1 ?
*A* 5.29

----------
Molecular target: Prostaglandin E2 receptor EP2 subtype (Homo sapiens)
Sequence (P43116 whole entry): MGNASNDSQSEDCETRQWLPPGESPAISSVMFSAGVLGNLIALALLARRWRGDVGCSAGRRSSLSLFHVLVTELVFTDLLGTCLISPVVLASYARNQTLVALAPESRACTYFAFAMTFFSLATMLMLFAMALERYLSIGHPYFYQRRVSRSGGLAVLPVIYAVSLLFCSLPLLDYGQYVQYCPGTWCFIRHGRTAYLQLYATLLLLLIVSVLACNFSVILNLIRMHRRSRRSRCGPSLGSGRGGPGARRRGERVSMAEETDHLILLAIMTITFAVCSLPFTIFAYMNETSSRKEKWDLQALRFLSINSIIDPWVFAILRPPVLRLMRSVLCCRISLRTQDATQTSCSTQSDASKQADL
Experiment: Inhibition of human recombinant EP2 receptor expressed in 293EBNA cells
Type: cell-based
Quantity name: pIC50
Please keep in mind that pIC50 is minus log10 of the molar concentration; only the number is needed.

*Q* Please state recorded pIC50 (tested on Prostaglandin E2 receptor EP2 subtype (Homo sapiens)) of CC(=O)Nc1cccc(-c2ccc(Cc3ocnc3C(=O)N[C@@H](Cc3ccccc3)C(=O)O)cc2)c1
*A* 4.49
